# experimental details: Clearance in Sprague-Dawley rat at 50 mg/kg, po via gavage administered as a single dose measured upto 24 hrs by LC/MS/MS analysis
# Assay type: ADME, organism-based
# assay conditions: in vivo
quantity: CL/F (mL/min)

In [3]: df
Out[3]:
                           molecular_string  reading_unit  recorded_result
0  C/C(=N\NC(=N)N)c1sc(-c2ccc(C#CCCN3CCC3)cc2)nc1C        mL/min             5.17

###

Reported values of MIC for individual entries
# Test system: Escherichia coli
# experimental details: Antimicrobial activity against Escherichia coli JW55031 harboring deltatolC mutant by broth liquid microdilution method
# Format: functional
quantity: MIC (µg/mL)

>>> print(df.to_string())
                                   molecule  reading_unit  modifier  recorded_result
0  C/C(=N\NC(=N)N)c1sc(-c2ccc(C#CCCN3CCSC3)cc2)nc1C         µg/mL         =               16
1  C/C(=N\NC(=N)N)c1sc(-c2ccc(OCCCCCn3ccnc3)cc2)nc1C         µg/mL         >               64
2  C/C(=N\NC(=N)N)c1sc(-c2ccc(OCCCN3CCN(C)CC3)cc2)nc1C         µg/mL         >               64
3  C/C(=N\NC(=N)N)c1sc(-c2ccc(OCCCCN3CCN(C)CC3)cc2)nc1C         µg/mL         =               32
4  C/C(=N\NC(=N)N)c1sc(-c2ccc(C#CCCN3CCC4CCCCC4C3)cc2)nc1C (stereo not given)         µg/mL         >               64
5  C/C(=N\NC(=N)N)c1sc(-c2ccc(OCCCN3CCC3)cc2)nc1C         µg/mL         =               64
6  C/C(=N\NC(=N)N)c1sc(-c2ccc(OCCCCN3CCOCC3)cc2)nc1C         µg/mL         >               64
7  C/C(=N\NC(=N)N)c1sc(-c2ccc(C#CCCN3CCN(C)CC3)cc2)nc1C         µg/mL         =               32
8  C/C(=N\NC(=N)N)c1sc(-c2ccc(OCCCCN3CCC4CCCCC4C3)cc2)nc1C (stereo not given)         µg/mL         >               64
9  C/C(=N\NC(=N)N)c1sc(-c2ccc(OCCCCN3CCCCCC3)cc2)nc1C         µg/mL         >               64

###

# experimental details: Cmax in Sprague-Dawley rat at 50 mg/kg, po via gavage administered as a single dose measured upto 24 hrs by LC/MS/MS analysis
# Format: ADME, organism-based
# Set-up: dose 50 mg/kg, route oral
# assay conditions: in vivo
quantity: Cmax (µg/mL)

                           molecular_string  reading_unit  recorded_result
0  C/C(=N\NC(=N)N)c1sc(-c2ccc(C#CCCN3CCC3)cc2)nc1C         µg/mL             15.6

###

# Tested on: Staphylococcus aureus
# experimental details: microbe, parasite or virus in culture
# assay conditions: NRS 385
# Description: Antimicrobial activity against methicillin-resistant Staphylococcus aureus NRS 385 by broth liquid microdilution method
Reported MBC values are given for each entry in this list.

molecular string	MBC, mg/L
C/C(=N\NC(=N)N)c1sc(-c2ccc(C#CCCN3CCSC3)cc2)nc1C	16
CC(=O)NC[C@H]1CN(c2ccc(N3CCOCC3)c(F)c2)C(=O)O1	32
C/C(=N\NC(=N)N)c1sc(-c2ccc(C#CCCN3CCC3)cc2)nc1C	4
C/C(=N\NC(=N)N)c1sc(-c2ccc(C#CCCn3ccnc3)cc2)nc1C	16
C/C(=N\NC(=N)N)c1sc(-c2ccc(C#CCCN3CC(O)C3)cc2)nc1C	4
CN[C@H](CC(C)C)C(=O)N[C@H]1C(=O)N[C@@H](CC(N)=O)C(=O)N[C@H]2C(=O)N[C@H]3C(=O)N[C@H](C(=O)N[C@H](C(=O)O)c4cc(O)cc(O)c4-c4cc3ccc4O)[C@H](O)c3ccc(c(Cl)c3)Oc3cc2cc(c3O[C@@H]2O[C@H](CO)[C@@H](O)[C@H](O)[C@H]2O[C@H]2C[C@](C)(N)[C@H](O)[C@H](C)O2)Oc2ccc(cc2Cl)[C@H]1O	1

###

# System: Escherichia coli
# experimental details: Antimicrobial activity against Escherichia coli JW55031 harboring deltatolC mutant by broth liquid microdilution method
# Assay type: functional
quantity: MIC (µg/mL)

                                   compound  quantity  modifier  recorded_result
0  C/C(=N\NC(=N)N)c1sc(-c2ccc(OCCCCCN3CCCCC3C)cc2)nc1C (stereo not given)       MIC         =               32
1  C/C(=N\NC(=N)N)c1sc(-c2ccc(OCCCCCN3CCSC3)cc2)nc1C       MIC         >               64
2  C/C(=N\NC(=N)N)c1sc(-c2ccc(C#CCCN3CCC3)cc2)nc1C       MIC         =               32
3  C/C(=N\NC(=N)N)c1sc(-c2ccc(OCCCCN3CCC(C)CC3)cc2)nc1C       MIC         =               32
4  C/C(=N\NC(=N)N)c1sc(-c2ccc(C#CCCN3CCCCCC3)cc2)nc1C       MIC         =               64
5  C/C(=N\NC(=N)N)c1sc(-c2ccc(OCCCCCN3CCSCC3)cc2)nc1C       MIC         >               64
6  C/C(=N\NC(=N)N)c1sc(-c2ccc(C#CCCN3CCCC(C)C3)cc2)nc1C (stereo not given)       MIC         =               64
7  C/C(=N\NC(=N)N)c1sc(-c2ccc(OCCCCCN3CCC(C)CC3)cc2)nc1C       MIC         =               64
8  C/C(=N\NC(=N)N)c1sc(-c2ccc(OCCCCN3CCC3)cc2)nc1C       MIC         =               16
9  C/C(=N\NC(=N)N)c1sc(-c2ccc(OCCCN3CCC4CCCCC4C3)cc2)nc1C (stereo not given)       MIC         >               64

###

# Tested on: Streptococcus pneumoniae
# experimental details: Antimicrobial activity against cephalosporin-resistant Streptococcus pneumoniae ATCC 51916 by broth liquid microdilution method
# Format: functional
# reported MBC; entries follow
quantity: MBC (µg/mL)

>>> df
                                   compound  reading_unit  recorded_result
0  C/C(=N\NC(=N)N)c1sc(-c2ccc(C#CCCn3ccnc3)cc2)nc1C         µg/mL               16
1  C/C(=N\NC(=N)N)c1sc(-c2ccc(C#CCCN3CCC3)cc2)nc1C         µg/mL                8
2  C/C(=N\NC(=N)N)c1sc(-c2ccc(C#CCCN3CCSC3)cc2)nc1C         µg/mL               32
3  CC(=O)NC[C@H]1CN(c2ccc(N3CCOCC3)c(F)c2)C(=O)O1 [LINEZOLID]         µg/mL               32
4  C/C(=N\NC(=N)N)c1sc(-c2ccc(C#CCCN3CC(O)C3)cc2)nc1C         µg/mL               16

###

// MIC lookup, one value per entry
# Tested on: Escherichia coli
# experimental details: Antimicrobial activity against Escherichia coli JW55031 harboring deltatolC mutant by broth liquid microdilution method
# Format: functional
quantity: MIC (µg/mL)

                           molecular_string  modifier  recorded_result
0  C/C(=N\NC(=N)N)c1sc(-c2ccc(C#CCCN3CCCCC3)cc2)nc1C         =               32
1  C/C(=N\NC(=N)N)c1sc(-c2ccc(OCCCCN3CCCCC3)cc2)nc1C         >               64
2  C/C(=N\NC(=N)N)c1sc(-c2ccc(OCCCCN3CCCC3)cc2)nc1C         >               64
3  C/C(=N\NC(=N)N)c1sc(-c2ccc(OCCCN3CCCCC3)cc2)nc1C         =               64
4  C/C(=N\NC(=N)N)c1sc(-c2ccc(OCCCCCN3CCN(C)CC3)cc2)nc1C         >               64
5  C/C(=N\NC(=N)N)c1sc(-c2ccc(OCCCCCN3CCCCC3)cc2)nc1C         =               16
